Where do the numbers come from? From ChEMBL document CHEMBL5291721.

Target: Voltage-gated inwardly rectifying potassium channel KCNH2 (Homo sapiens); further: assay procedure not described here
Sequence (Q12809 whole entry): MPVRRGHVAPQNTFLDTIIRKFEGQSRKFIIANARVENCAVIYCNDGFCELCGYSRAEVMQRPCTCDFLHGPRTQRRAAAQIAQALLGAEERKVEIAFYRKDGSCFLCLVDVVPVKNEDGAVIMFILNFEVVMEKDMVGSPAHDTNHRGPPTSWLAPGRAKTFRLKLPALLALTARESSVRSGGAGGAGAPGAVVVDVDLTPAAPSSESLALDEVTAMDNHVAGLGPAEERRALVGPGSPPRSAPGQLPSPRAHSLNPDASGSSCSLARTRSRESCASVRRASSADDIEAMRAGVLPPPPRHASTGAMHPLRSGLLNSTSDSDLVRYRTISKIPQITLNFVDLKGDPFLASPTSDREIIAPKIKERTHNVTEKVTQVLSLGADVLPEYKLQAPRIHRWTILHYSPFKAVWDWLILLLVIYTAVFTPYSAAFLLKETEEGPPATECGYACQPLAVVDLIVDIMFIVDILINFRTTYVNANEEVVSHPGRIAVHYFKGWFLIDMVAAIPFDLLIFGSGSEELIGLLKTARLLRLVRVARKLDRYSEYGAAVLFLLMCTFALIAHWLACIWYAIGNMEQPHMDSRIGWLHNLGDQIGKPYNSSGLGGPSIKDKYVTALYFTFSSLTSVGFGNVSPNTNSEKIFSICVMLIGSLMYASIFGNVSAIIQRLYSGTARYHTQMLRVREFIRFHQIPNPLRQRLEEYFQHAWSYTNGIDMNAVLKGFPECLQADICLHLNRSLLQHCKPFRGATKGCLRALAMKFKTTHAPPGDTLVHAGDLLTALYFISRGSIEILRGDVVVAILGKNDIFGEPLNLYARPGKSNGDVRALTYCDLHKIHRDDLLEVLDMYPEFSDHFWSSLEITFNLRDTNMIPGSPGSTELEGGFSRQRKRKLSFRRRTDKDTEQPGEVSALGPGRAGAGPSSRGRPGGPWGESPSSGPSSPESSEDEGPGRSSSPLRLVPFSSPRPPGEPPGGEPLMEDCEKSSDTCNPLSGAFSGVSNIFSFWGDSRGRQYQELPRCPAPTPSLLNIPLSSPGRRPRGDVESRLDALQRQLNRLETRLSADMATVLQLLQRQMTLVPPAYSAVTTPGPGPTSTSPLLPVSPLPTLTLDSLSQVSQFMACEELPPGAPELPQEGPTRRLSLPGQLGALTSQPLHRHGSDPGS
Assay type: functional
Details: read-out: AC50
Entries and their AC50

| Compound | System tested | AC50 |
| --- | --- | --- |
| O=C(O)CCCC[C@@H]1SC[C@@H]2NC(=O)N[C@@H]21 [BIOTIN] | Voltage-gated inwardly rectifying potassium channel KCNH2 (Homo sapiens) | > 30 µM |
| Cc1cccc(C)c1NC(=O)CN(CC(=O)O)CC(=O)O [LIDOFENIN] | Voltage-gated inwardly rectifying potassium channel KCNH2 (Homo sapiens) | > 30 µM |
| c1cnc2cc3c(cc2n1)[C@@H]1CNC[C@H]3C1 [VARENICLINE] | Voltage-gated inwardly rectifying potassium channel KCNH2 (Homo sapiens) | > 30 µM |
| NC(=O)N/N=C/c1ccc([N+](=O)[O-])o1 [NITROFURAZONE] | Voltage-gated inwardly rectifying potassium channel KCNH2 (Homo sapiens) | > 30 µM |
| CCCCCCO[C@@H](C)c1cccc(-c2csc(NC(=O)c3cc(Cl)c(/C=C(\C)C(=O)O)c(Cl)c3)n2)c1OC [LUSUTROMBOPAG] | Voltage-gated inwardly rectifying potassium channel KCNH2 (Homo sapiens) | 4.9 µM |
| CN1C(C(=O)Nc2ccccn2)=C(OC(=O)/C=C/c2ccccc2)c2ccccc2S1(=O)=O [PIROXICAM CINNAMATE] | Voltage-gated inwardly rectifying potassium channel KCNH2 (Homo sapiens) | > 30 µM |
| NS(=O)(=O)c1ccc(N2CCCCS2(=O)=O)cc1 | Voltage-gated inwardly rectifying potassium channel KCNH2 (Homo sapiens) | > 30 µM |
| Nc1c2c(nc3ccccc13)CCCC2O (centres undefined) [VELNACRINE] | Voltage-gated inwardly rectifying potassium channel KCNH2 (Homo sapiens) | 25 µM |
| CCCCC[C@H](O)CC[C@@H]1[C@H]2Cc3cccc(OCC(=O)O)c3C[C@H]2C[C@H]1O [TREPROSTINIL] | Voltage-gated inwardly rectifying potassium channel KCNH2 (Homo sapiens) | > 30 µM |
| CC(C)NC[C@H](O)COc1ccc(O)cc1 [PRENALTEROL] | Voltage-gated inwardly rectifying potassium channel KCNH2 (Homo sapiens) | > 30 µM |
| O=C(OOC(=O)c1ccccc1)c1ccccc1 [BENZOYL PEROXIDE] | Voltage-gated inwardly rectifying potassium channel KCNH2 (Homo sapiens) | > 30 µM |
| OC[C@H]1NC[C@H](O)[C@@H](O)[C@H]1O | Voltage-gated inwardly rectifying potassium channel KCNH2 (Homo sapiens) | > 30 µM |
| COC(=O)c1ccc2c(c1)NC(=O)/C2=C(\Nc1ccc(N(C)C(=O)CN2CCN(C)CC2)cc1)c1ccccc1 [NINTEDANIB] | Voltage-gated inwardly rectifying potassium channel KCNH2 (Homo sapiens) | 9.1 µM |
| C[C@H]1C[C@H]2[C@@H]3CCC4=CC(=O)C=C[C@]4(C)[C@@]3(F)[C@@H](O)C[C@]2(C)[C@@]1(O)C(=O)CO [BETAMETHASONE] | Voltage-gated inwardly rectifying potassium channel KCNH2 (Homo sapiens) | > 30 µM |
| OCC(O)COc1ccc(Cl)cc1 (centres undefined) | Voltage-gated inwardly rectifying potassium channel KCNH2 (Homo sapiens) | > 30 µM |
| COc1ccc(C(Cl)=C(c2ccc(OC)cc2)c2ccc(OC)cc2)cc1 [CHLOROTRIANISENE] | Voltage-gated inwardly rectifying potassium channel KCNH2 (Homo sapiens) | > 30 µM |
| Cc1c(C)c2c(c(C)c1O)CCC(C)(COc1ccc(CC3SC(=O)NC3=O)cc1)O2 (centres undefined) [TROGLITAZONE] | Voltage-gated inwardly rectifying potassium channel KCNH2 (Homo sapiens) | > 30 µM |
| CC(=O)OCC1=C(C(=O)O)N2C(=O)[C@@H](NC(=O)Cc3cccs3)[C@H]2SC1 [CEPHALOTHIN] | Voltage-gated inwardly rectifying potassium channel KCNH2 (Homo sapiens) | > 30 µM |
| NCCCNCCSP(=O)(O)O [AMIFOSTINE] | Voltage-gated inwardly rectifying potassium channel KCNH2 (Homo sapiens) | > 30 µM |
